Field: ED50. Provide a value for each of the compounds that follow.
Test system: Mus musculus
Test Protocol: Inhibition of SERT-mediated serotonin-reuptake assessed as 5-hydroxytryptophan induced intraperitoneally dosed mouse head twitch after 20 mins
Assay type: functional
Particulars: ip
Your answer should be a plain number; it is taken to be in µmol/kg.

Lookup result for CN(C)CCCN1c2ccccc2CCc2ccc(Cl)cc21 [CLOMIPRAMINE] ; measured ED50: 2

Entry under test: CN1C2CCC1CC(Oc1ccc([N+](=O)[O-])cc1)(c1ccccc1)C2 (centres undefined) . Its ED50 was 2.94

Sure, the documented ED50 for CN1C2CCC1CC(Oc1cccc(C(F)(F)F)c1)(c1ccccc1)C2 (centres undefined) is 5.46

Value of measured ED50 for the entry CN1C2CCC1CC(Oc1ccc(C(F)(F)F)cc1)(c1ccccc1)C2 (centres undefined) : 3.3

# ED50 (compound: CN(C)CCCC1(c2ccc(F)cc2)OCc2cc(C#N)ccc21 (centres undefined) [CITALOPRAM] ) is 1.58

Notebook: CNCCC(Oc1ccc(C(F)(F)F)cc1)c1ccccc1 (centres undefined) [FLUOXETINE] , ED50 read as 5.09

response.value for CN1C2CCC1CC(Oc1ccc(Cl)cc1)(c1ccccc1)C2 (centres undefined) (field: ED50) = 4.72

The compound listed as CN1C2CCC1CC(Oc1ccc(C#N)cc1)(c1ccc(F)cc1)C2 (centres undefined) shows ED50 equal to 2.94

The reported value for CN1C2CCC1CC(Oc1ccc(C#N)cc1)(c1ccccc1)C2 (centres undefined) in terms of ED50 is 4.44
